# measurement-target: myeloperoxidase (MPO) (Homo sapiens (Human), UniProt P05164)
# Sequence (P05164 49-745): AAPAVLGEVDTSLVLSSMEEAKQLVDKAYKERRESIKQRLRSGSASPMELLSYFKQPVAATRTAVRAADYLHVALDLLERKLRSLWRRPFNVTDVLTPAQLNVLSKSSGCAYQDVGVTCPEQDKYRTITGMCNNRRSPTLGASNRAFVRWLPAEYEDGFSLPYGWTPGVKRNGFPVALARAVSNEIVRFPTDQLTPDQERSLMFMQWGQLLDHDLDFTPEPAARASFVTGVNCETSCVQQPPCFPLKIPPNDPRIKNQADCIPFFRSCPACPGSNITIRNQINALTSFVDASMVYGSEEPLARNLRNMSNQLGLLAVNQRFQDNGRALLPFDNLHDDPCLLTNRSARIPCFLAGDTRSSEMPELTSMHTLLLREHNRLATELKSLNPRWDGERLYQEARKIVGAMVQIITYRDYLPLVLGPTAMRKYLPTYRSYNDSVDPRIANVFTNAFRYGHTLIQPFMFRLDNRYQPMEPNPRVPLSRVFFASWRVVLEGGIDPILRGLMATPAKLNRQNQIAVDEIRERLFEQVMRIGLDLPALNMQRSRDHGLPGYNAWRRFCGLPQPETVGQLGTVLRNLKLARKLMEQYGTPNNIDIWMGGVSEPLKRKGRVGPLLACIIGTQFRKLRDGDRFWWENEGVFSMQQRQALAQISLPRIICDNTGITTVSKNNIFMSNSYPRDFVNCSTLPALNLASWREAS
# experimental-details: MPO peroxidation assay (Amplex Red assay)
# Assay type: biochemical
# cond: potency range class
pIC50: −log10 of the molar value.
observed-property: pIC50

[[record]]
compound = "Nc1cc(Cc2cnn(-c3cccc(Cl)c3)c2)c2nn[nH]c2n1 [Example 7]"
measurement_target = "myeloperoxidase (MPO) (Homo sapiens (Human), UniProt P05164)"
result = "7.00 to 9.00"

[[record]]
compound = "Nc1cc(Cc2cnn(Cc3ccc(Cn4cccn4)cc3)c2)c2nn[nH]c2n1 [Example 109]"
measurement_target = "myeloperoxidase (MPO) (Homo sapiens (Human), UniProt P05164)"
result = "7.00 to 9.00"

[[record]]
compound = "Cc1nc(-c2ccc(Cl)cc2)sc1Cn1cc(Cc2cc(N)nc3[nH]nnc23)cn1 [Example 119]"
measurement_target = "myeloperoxidase (MPO) (Homo sapiens (Human), UniProt P05164)"
result = "7.00 to 9.00"

[[record]]
compound = "Nc1cc(Cc2cnn(Cc3ccc(C(=O)NCc4cnco4)cc3)c2)c2nn[nH]c2n1 [Example 92]"
measurement_target = "myeloperoxidase (MPO) (Homo sapiens (Human), UniProt P05164)"
result = "6.00 to 7.00"

[[record]]
compound = "NC(=O)CNC(=O)c1ccc(Cn2cc(Cc3cc(N)nc4[nH]nnc34)cn2)cc1 [Example 90]"
measurement_target = "myeloperoxidase (MPO) (Homo sapiens (Human), UniProt P05164)"
result = "7.00 to 9.00"

[[record]]
compound = "Nc1cc(Cn2cc(-c3ccccc3)nn2)c2nn[nH]c2n1 [Example 162]"
measurement_target = "myeloperoxidase (MPO) (Homo sapiens (Human), UniProt P05164)"
result = "6.00 to 7.00"

[[record]]
compound = "Cc1cc(Cc2cc(N)nc3[nH]nnc23)sc1C [Example 50]"
measurement_target = "myeloperoxidase (MPO) (Homo sapiens (Human), UniProt P05164)"
result = "6.00 to 7.00"

[[record]]
compound = "Nc1cc(Cc2cnn(Cc3ccccc3Cc3ccccc3)c2)c2nn[nH]c2n1 [Example 265]"
measurement_target = "myeloperoxidase (MPO) (Homo sapiens (Human), UniProt P05164)"
result = "7.00 to 9.00"

[[record]]
compound = "Nc1cc(Cc2ccc(C(F)(F)F)o2)c2nn[nH]c2n1 [Example 70]"
measurement_target = "myeloperoxidase (MPO) (Homo sapiens (Human), UniProt P05164)"
result = "5.00 to 6.00"

[[record]]
compound = "COc1cc2cc(Cn3cc(Cc4cc(N)nc5[nH]nnc45)cn3)ccc2cn1 [Example 173]"
measurement_target = "myeloperoxidase (MPO) (Homo sapiens (Human), UniProt P05164)"
result = "7.00 to 9.00"

[[record]]
compound = "Nc1cc(Cc2cnn(Cc3cccc(C(F)(F)F)c3)c2)c2nn[nH]c2n1 [Example 62]"
measurement_target = "myeloperoxidase (MPO) (Homo sapiens (Human), UniProt P05164)"
result = "7.00 to 9.00"

[[record]]
compound = "Nc1cc(Cn2nnc3ccc(Cc4ccccc4)cc32)c2nn[nH]c2n1 [Example 170]"
measurement_target = "myeloperoxidase (MPO) (Homo sapiens (Human), UniProt P05164)"
result = "6.00 to 7.00"

[[record]]
compound = "Cc1nnc(C(C)NC(=O)c2ccc(Cn3cc(Cc4cc(N)nc5[nH]nnc45)cn3)cc2)[nH]1 (stereo not drawn) [Example 95]"
measurement_target = "myeloperoxidase (MPO) (Homo sapiens (Human), UniProt P05164)"
result = "6.00 to 7.00"

[[record]]
compound = "Nc1cc(Cc2cnn(-c3ccc(Br)cc3)c2)c2nn[nH]c2n1 [Example 8]"
measurement_target = "myeloperoxidase (MPO) (Homo sapiens (Human), UniProt P05164)"
result = "7.00 to 9.00"

[[record]]
compound = "Nc1cc(Cc2cnn(Cc3cccc(OC(F)(F)F)c3)c2)c2nn[nH]c2n1 [Example 60]"
measurement_target = "myeloperoxidase (MPO) (Homo sapiens (Human), UniProt P05164)"
result = "7.00 to 9.00"

[[record]]
compound = "CC(C)(C)[Si](C)(C)OCC(c1ccccc1)n1cc(Cc2cc(N)nc3[nH]nnc23)cn1 (stereo not drawn) [Example 144]"
measurement_target = "myeloperoxidase (MPO) (Homo sapiens (Human), UniProt P05164)"
result = "6.00 to 7.00"

[[record]]
compound = "Nc1cc(Cc2cnn(Cc3cn(-c4ccccc4)nn3)c2)c2nn[nH]c2n1 [Example 116]"
measurement_target = "myeloperoxidase (MPO) (Homo sapiens (Human), UniProt P05164)"
result = "7.00 to 9.00"

[[record]]
compound = "Nc1cc(Cc2cnn(Cc3cccc(C4CCCN4)c3)c2)c2nn[nH]c2n1 (stereo not drawn) [Example 208]"
measurement_target = "myeloperoxidase (MPO) (Homo sapiens (Human), UniProt P05164)"
result = "7.00 to 9.00"

[[record]]
compound = "Nc1cc(Cc2cnn(Cc3ccc(C(=O)N4CCC(O)C4)cc3)c2)c2nn[nH]c2n1 (stereo not drawn) [Example 84]"
measurement_target = "myeloperoxidase (MPO) (Homo sapiens (Human), UniProt P05164)"
result = "6.00 to 7.00"

[[record]]
compound = "NC(=O)c1ccc(Cn2cc(Cc3cc(N)nc4[nH]nnc34)cn2)cc1 [Example 73]"
measurement_target = "myeloperoxidase (MPO) (Homo sapiens (Human), UniProt P05164)"
result = "5.00 to 6.00"

[[record]]
compound = "Nc1cc(Cc2cnn(Cc3cccc4c3CCCC4)c2)c2nn[nH]c2n1 [Example 135]"
measurement_target = "myeloperoxidase (MPO) (Homo sapiens (Human), UniProt P05164)"
result = "7.00 to 9.00"

[[record]]
compound = "Cc1nn(-c2ccccc2)nc1Cn1cc(Cc2cc(N)nc3[nH]nnc23)cn1 [Example 114]"
measurement_target = "myeloperoxidase (MPO) (Homo sapiens (Human), UniProt P05164)"
result = "7.00 to 9.00"

[[record]]
compound = "Nc1cc(Cc2ccc(-c3ccccn3)s2)c2nn[nH]c2n1 [Example 51]"
measurement_target = "myeloperoxidase (MPO) (Homo sapiens (Human), UniProt P05164)"
result = "7.00 to 9.00"

[[record]]
compound = "Nc1cc(Cc2cnn(Cc3cc([C@@H]4CCNC4)cc(F)c3F)c2)c2nn[nH]c2n1 [Example 199]"
measurement_target = "myeloperoxidase (MPO) (Homo sapiens (Human), UniProt P05164)"
result = "7.00 to 9.00"

[[record]]
compound = "Nc1cc(Cc2cnn(Cc3ccc4c(c3)CNCC4)c2)c2nn[nH]c2n1 [Example 153]"
measurement_target = "myeloperoxidase (MPO) (Homo sapiens (Human), UniProt P05164)"
result = "7.00 to 9.00"

[[record]]
compound = "Nc1cc(Cc2cnn(Cc3cccc(Br)c3)c2)c2nn[nH]c2n1 [Example 101]"
measurement_target = "myeloperoxidase (MPO) (Homo sapiens (Human), UniProt P05164)"
result = "7.00 to 9.00"

[[record]]
compound = "Nc1cc(Cc2cnn(Cc3ccc4cc[nH]c(=O)c4c3)c2)c2nn[nH]c2n1 [Example 175]"
measurement_target = "myeloperoxidase (MPO) (Homo sapiens (Human), UniProt P05164)"
result = "7.00 to 9.00"

[[record]]
compound = "NCc1ccc(Cn2cc(Cc3cc(N)nc4[nH]nnc34)cn2)cc1 [Example 250]"
measurement_target = "myeloperoxidase (MPO) (Homo sapiens (Human), UniProt P05164)"
result = "7.00 to 9.00"

[[record]]
compound = "Nc1cc(Cc2cc(-c3ccccc3)no2)c2nn[nH]c2n1 [Example 48]"
measurement_target = "myeloperoxidase (MPO) (Homo sapiens (Human), UniProt P05164)"
result = "6.00 to 7.00"

[[record]]
compound = "Nc1cc(Cc2cnn(C3CCC3)c2)c2nn[nH]c2n1 [Example 53]"
measurement_target = "myeloperoxidase (MPO) (Homo sapiens (Human), UniProt P05164)"
result = "7.00 to 9.00"

[[record]]
compound = "Nc1cc(Cc2cnn(Cc3nc(-c4ccccc4)no3)c2)c2nn[nH]c2n1 [Example 120]"
measurement_target = "myeloperoxidase (MPO) (Homo sapiens (Human), UniProt P05164)"
result = "7.00 to 9.00"

[[record]]
compound = "Nc1cc(Cc2cnn(C[C@H]3C[C@H](Oc4ccc(F)cc4)CN3)c2)c2nn[nH]c2n1 [Example 282]"
measurement_target = "myeloperoxidase (MPO) (Homo sapiens (Human), UniProt P05164)"
result = "7.00 to 9.00"

[[record]]
compound = "N#Cc1ccc(Cn2cc(Cc3cc(N)nc4[nH]nnc34)cn2)cc1F [Example 272]"
measurement_target = "myeloperoxidase (MPO) (Homo sapiens (Human), UniProt P05164)"
result = "7.00 to 9.00"

[[record]]
compound = "CC(c1ccccc1)n1cc(Cc2cc(N)nc3[nH]nnc23)cn1 (stereo not drawn) [Example 63]"
measurement_target = "myeloperoxidase (MPO) (Homo sapiens (Human), UniProt P05164)"
result = "7.00 to 9.00"

[[record]]
compound = "Nc1cc(Cn2nnc(-c3ccccc3)n2)c2nn[nH]c2n1 [Example 169]"
measurement_target = "myeloperoxidase (MPO) (Homo sapiens (Human), UniProt P05164)"
result = "6.00 to 7.00"

[[record]]
compound = "Nc1cc(Cc2cnn(Cc3cccc(C4CCNCC4(F)F)c3)c2)c2nn[nH]c2n1 (stereo not drawn) [Example 214]"
measurement_target = "myeloperoxidase (MPO) (Homo sapiens (Human), UniProt P05164)"
result = "7.00 to 9.00"

